Tested on: KB tumor-bearing athymic nude mice
Assay Summary: Biodistribution of 177Lu-RedFols in KB tumor-bearing mice
Assay type: in vivo, mouse
Settings: 1 h p.i.
Experimental Readout: Muscle, accumulated activity (% IA/g)
Return type: number; implicit unit % IA/g.

Compound	Experimental Target	Muscle, accumulated activity, % IA/g
CN1c2c(nc(N)[nH]c2=O)NCC1CNc1ccc(C(=O)NC(CCC(=O)NC(CCCCNC(=O)CN2CCN(CC(=O)[O-])CCN(CC(=O)[O-])CCN(CC(=O)[O-])CC2)C(=O)NC(CCCCNC(=O)c2ccc(CNC(=O)CCCCc3ccc(I)cc3)cc2)C(=O)O)C(=O)O)cc1.[177Lu+3] (stereo not drawn) [[^177Lu]Lu-6S-RedFol-25]	KB tumor-bearing athymic nude mice	1.2
CN1c2c(nc(N)[nH]c2=O)NC[C@H]1CNc1ccc(C(=O)N[C@@H](CCC(=O)N[C@@H](CCCCNC(=O)CN2CCN(CC(=O)O)CCN(CC(=O)O)CCN(CC(=O)O)CC2)C(=O)N[C@@H](CCCCNC(=O)c2ccc(CNC(=O)CCCc3ccc(I)cc3)cc2)C(=O)O)C(=O)O)cc1 [[^177Lu]Lu-6R-RedFol-3, metal not drawn]	KB tumor-bearing athymic nude mice	1.0

# evaluate next
Q: Given CN1c2c(nc(N)[nH]c2=O)NCC1CNc1ccc(C(=O)NC(CCC(=O)NC(CCCCNC(=O)CN2CCN(CC(=O)[O-])CCN(CC(=O)[O-])CCN(CC(=O)[O-])CC2)C(=O)NC(CCCCNC(=O)c2ccc(CNC(=O)CCCc3ccc(I)cc3)cc2)C(=O)O)C(=O)O)cc1.[177Lu+3] (stereo not drawn) [[^177Lu]Lu-6S-RedFol-3] , state its recorded Muscle, accumulated activity.
A: 1.4

----------
Assay Summary: Radiolytic stability of 177Lu-DOTA-ALBs in PBS (HPLC)
Format: physicochemical
Settings: without L-ascorbic acid, 4 h, room temperature, 100 MBq/500 µL PBS
Each entry below lists one item and its recorded Intact radioligand value.
Provide the reading as a plain figure in %.

Please review the following examples before continuing.
Molecule	Experimental Readout	Display Unit	Recorded Result
O=C(O)CN1CCN(CC(=O)O)CCN(CC(=O)NCCC(=O)N[C@@H](CCCCNC(=O)CCCCc2ccc(I)cc2)C(=O)O)CCN(CC(=O)O)CC1.[177Lu] [[^177Lu]Lu-DOTA-ALB-24]	Intact radioligand	%	88
O=C(O)CN1CCN(CC(=O)O)CCN(CC(=O)NCCC(=O)N[C@@H](CCCCNC(=O)c2ccc(CNC(=O)CCCCc3ccc(I)cc3)cc2)C(=O)O)CCN(CC(=O)O)CC1.[177Lu] [[^177Lu]Lu-DOTA-ALB-25]	Intact radioligand	%	91
O=C(O)CN1CCN(CC(=O)O)CCN(CC(=O)NCCC(=O)N[C@@H](CCCCNC(=O)c2ccc(CNC(=O)CCCc3ccc(I)cc3)cc2)C(=O)O)CCN(CC(=O)O)CC1.[177Lu] [[^177Lu]Lu-DOTA-ALB-3]	Intact radioligand	%	89

// switching to the query molecule
Q: Which Intact radioligand is reported for this molecule? O=C(O)CN1CCN(CC(=O)O)CCN(CC(=O)NCCC(=O)N[C@@H](CCCCNC(=O)CCCc2ccc(I)cc2)C(=O)O)CCN(CC(=O)O)CC1.[177Lu] [[^177Lu]Lu-DOTA-ALB-1]
A: 92

----------
System: KB tumor-bearing athymic nude mice
Assay Summary: Biodistribution of 177Lu-RedFols in KB tumor-bearing mice
Assay type: in vivo, mouse
Settings: 4 h p.i.
Criterion: KB tumor, accumulated activity meeting or surpassing 30 % IA/g. Met: true. Not met: false.

Compound	Experimental Target	Class Name
CN1c2c(nc(N)[nH]c2=O)NC[C@H]1CNc1ccc(C(=O)N[C@@H](CCC(=O)N[C@@H](CCCCNC(=O)CN2CCN(CC(=O)O)CCN(CC(=O)O)CCN(CC(=O)O)CC2)C(=O)N[C@@H](CCCCNC(=O)CCCCc2ccc(I)cc2)C(=O)O)C(=O)O)cc1 [[^177Lu]Lu-6R-RedFol-24, metal not drawn]	KB tumor-bearing athymic nude mice	true
CN1c2c(nc(N)[nH]c2=O)NCC1CNc1ccc(C(=O)NC(CCC(=O)NC(CCCCNC(=O)CN2CCN(CC(=O)[O-])CCN(CC(=O)[O-])CCN(CC(=O)[O-])CC2)C(=O)NC(CCCCNC(=O)c2ccc(CNC(=O)CCCc3ccc(I)cc3)cc2)C(=O)O)C(=O)O)cc1.[177Lu+3] (stereo not drawn) [[^177Lu]Lu-6S-RedFol-3]	KB tumor-bearing athymic nude mice	false
CN1c2c(nc(N)[nH]c2=O)NC[C@H]1CNc1ccc(C(=O)N[C@@H](CCC(=O)N[C@@H](CCCCNC(=O)CN2CCN(CC(=O)O)CCN(CC(=O)O)CCN(CC(=O)O)CC2)C(=O)N[C@@H](CCCCNC(=O)c2ccc(CNC(=O)CCCc3ccc(I)cc3)cc2)C(=O)O)C(=O)O)cc1 [[^177Lu]Lu-6R-RedFol-3, metal not drawn]	KB tumor-bearing athymic nude mice	false

Now consider a different compound.
Q: Given CN1c2c(nc(N)[nH]c2=O)NCC1CNc1ccc(C(=O)NC(CCC(=O)NC(CCCCNC(=O)CN2CCN(CC(=O)[O-])CCN(CC(=O)[O-])CCN(CC(=O)[O-])CC2)C(=O)NC(CCCCNC(=O)c2ccc(CNC(=O)CCCCc3ccc(I)cc3)cc2)C(=O)O)C(=O)O)cc1.[177Lu+3] (stereo not drawn) [[^177Lu]Lu-6S-RedFol-25] , state whether its KB tumor, accumulated activity is at least 30 % IA/g.
A: true

----------
System: KB tumor-bearing athymic nude mice
Assay Summary: Biodistribution of 177Lu-RedFols in KB tumor-bearing mice
Format: in vivo, mouse
Settings: 1 h p.i.
Tumor-to-blood ratio reference
Respond with the number and no other words.

Molecule	Tumor-to-blood ratio
CN1c2c(nc(N)[nH]c2=O)NC[C@H]1CNc1ccc(C(=O)N[C@@H](CCC(=O)N[C@@H](CCCCNC(=O)CN2CCN(CC(=O)O)CCN(CC(=O)O)CCN(CC(=O)O)CC2)C(=O)N[C@@H](CCCCNC(=O)c2ccc(CNC(=O)CCCCc3ccc(I)cc3)cc2)C(=O)O)C(=O)O)cc1 [[^177Lu]Lu-6R-RedFol-25, metal not drawn]	1.2

Query molecule follows.
Q: Which measured Tumor-to-blood ratio value corresponds to CN1c2c(nc(N)[nH]c2=O)NCC1CNc1ccc(C(=O)NC(CCC(=O)NC(CCCCNC(=O)CN2CCN(CC(=O)[O-])CCN(CC(=O)[O-])CCN(CC(=O)[O-])CC2)C(=O)NC(CCCCNC(=O)c2ccc(CNC(=O)CCCc3ccc(I)cc3)cc2)C(=O)O)C(=O)O)cc1.[177Lu+3] (stereo not drawn) [[^177Lu]Lu-6S-RedFol-3] ?
A: 0.36

----------
Tested on: KB tumor-bearing athymic nude mice
Assay Summary: Biodistribution of 177Lu-RedFols in KB tumor-bearing mice
Type: in vivo, mouse
Settings: 24 h p.i.
Protocol: Athymic nude mice (Crl:CD1-Foxn^nu) were kept on a folate-deficient rodent diet (ssniff Spezialdiäten GmbH, Soest, Germany) for at least one week prior to inoculation with the tumor cells. Biodistribution studies were performed approx. two weeks after subcutaneous inoculation with KB tumor cells (5 × 10^6 in 100 μL PBS) (Supplementary Materials Section S12). […] Data were presented as the average ± SD of n = 3−4 mice. […]
Experimental Readout: Tumor-to-blood ratio
Format: numeric value only, no unit, no commentary.

Observe how each entry below is paired with its result.
Compound	Tumor-to-blood ratio
CN1c2c(nc(N)[nH]c2=O)NCC1CNc1ccc(C(=O)NC(CCC(=O)NC(CCCCNC(=O)CN2CCN(CC(=O)[O-])CCN(CC(=O)[O-])CCN(CC(=O)[O-])CC2)C(=O)NC(CCCCNC(=O)c2ccc(CNC(=O)CCCCc3ccc(I)cc3)cc2)C(=O)O)C(=O)O)cc1.[177Lu+3] (stereo not drawn) [[^177Lu]Lu-6S-RedFol-25]	316
CN1c2c(nc(N)[nH]c2=O)NC[C@H]1CNc1ccc(C(=O)N[C@@H](CCC(=O)N[C@@H](CCCCNC(=O)CN2CCN(CC(=O)O)CCN(CC(=O)O)CCN(CC(=O)O)CC2)C(=O)N[C@@H](CCCCNC(=O)CCCCc2ccc(I)cc2)C(=O)O)C(=O)O)cc1 [[^177Lu]Lu-6R-RedFol-24, metal not drawn]	583
CN1c2c(nc(N)[nH]c2=O)NC[C@H]1CNc1ccc(C(=O)N[C@@H](CCC(=O)N[C@@H](CCCCNC(=O)CN2CCN(CC(=O)O)CCN(CC(=O)O)CCN(CC(=O)O)CC2)C(=O)N[C@@H](CCCCNC(=O)c2ccc(CNC(=O)CCCCc3ccc(I)cc3)cc2)C(=O)O)C(=O)O)cc1 [[^177Lu]Lu-6R-RedFol-25, metal not drawn]	247

Q: Give the measured Tumor-to-blood ratio of CN1c2c(nc(N)[nH]c2=O)NCC1CNc1ccc(C(=O)NC(CCC(=O)NC(CCCCNC(=O)CN2CCN(CC(=O)[O-])CCN(CC(=O)[O-])CCN(CC(=O)[O-])CC2)C(=O)NC(CCCCNC(=O)c2ccc(CNC(=O)CCCc3ccc(I)cc3)cc2)C(=O)O)C(=O)O)cc1.[177Lu+3] (stereo not drawn) [[^177Lu]Lu-6S-RedFol-3] .
A: 4.7

Q: Give its Tumor-to-blood ratio value. Item: CN1c2c(nc(N)[nH]c2=O)NC[C@H]1CNc1ccc(C(=O)N[C@@H](CCC(=O)N[C@@H](CCCCNC(=O)CN2CCN(CC(=O)O)CCN(CC(=O)O)CCN(CC(=O)O)CC2)C(=O)N[C@@H](CCCCNC(=O)c2ccc(CNC(=O)CCCc3ccc(I)cc3)cc2)C(=O)O)C(=O)O)cc1 [[^177Lu]Lu-6R-RedFol-3, metal not drawn]
A: 5.0
